Experiment: Hepatotoxicity against human HepG2 cells assessed as cell viability at 6.25 uM after 24 hrs by MTT assay
Type: toxicity, cell-based
Settings: read-out: Activity
REPORTED METRIC: viability at 24 h, 6.25 µM (%)
Numbers only, in %.

Data point: O=c1oc2cc(OCCNC3CCN(Cc4ccccc4)CC3)ccc2c2c1CCCC2 ; viability at 24 h, 6.25 µM = 101

====

Organism: Homo sapiens
Assay: Selectivity index, ratio of IC50 for human recombinant MAO-A to IC50 for human recombinant MAO-B
REPORTED METRIC: Ratio IC50

Items follow; give Ratio IC50 for each.
1. O=c1ccc2ccc(OCCNC3CCN(Cc4ccccc4)CC3)cc2o1
2. Cc1c(Cl)c(=O)oc2cc(OCCNC3CCN(Cc4ccccc4)CC3)ccc12
3. COc1cc(=O)oc2cc(OCCNC3CCN(Cc4ccccc4)CC3)ccc12
4. Cc1cc2ccc(OCCNC3CCN(Cc4ccccc4)CC3)cc2oc1=O
5. Cc1c(C)c2ccc(OCCNC3CCN(Cc4ccccc4)CC3)cc2oc1=O

> 11.9
> 6.8
> 2.98
> 42
> 4.27

Items follow; give Ratio IC50 for each.
1. O=c1ccc2ccc(OCCCNC3CCN(Cc4ccccc4)CC3)cc2o1
2. Cc1cc(=O)oc2cc(CNCCC3CCN(Cc4ccccc4)CC3)ccc12

> 7.94
> 2.47

====

Species: Homo sapiens
Experiment: Selectivity index, ratio of IC50 for human recombinant MAO-A to IC50 for human recombinant MAO-B
REPORTED METRIC: Ratio IC50

Previously resolved entries follow.
O=c1cc(-c2ccccc2)c2ccc(OCCNC3CCN(Cc4ccccc4)CC3)cc2o1 = > 2.19
O=c1ccc2ccc(OCCNCCC3CCN(Cc4ccccc4)CC3)cc2o1 = > 3.29
O=c1cc(Cl)c2ccc(OCCNC3CCN(Cc4ccccc4)CC3)cc2o1 = > 2.95
O=c1cc(C(F)(F)F)c2ccc(OCCNC3CCN(Cc4ccccc4)CC3)cc2o1 = > 3.51
Cc1cc(=O)oc2cc(CNC3CCN(Cc4ccccc4)CC3)ccc12 = > 51.8

Items follow; give Ratio IC50 for each.
1. CCOc1cc(=O)oc2cc(OCCNC3CCN(Cc4ccccc4)CC3)ccc12
2. O=c1oc2cc(OCCNC3CCN(Cc4ccccc4)CC3)ccc2c2c1CCCC2
3. Cc1cc(=O)oc2cc(OCCNC3CCN(Cc4ccccc4)CC3)ccc12

> 3.13
> 38.2
> 36.4
